Source: ChEMBL document CHEMBL3259525

What follows is a record of IC50 for Plasmepsin I (Plasmodium falciparum).
Express the result in µM but write the number alone.

Some entries whose results are on file:
CCCN(CCC)C(=O)c1cc(C(=O)N[C@@H](Cc2ccccc2)[C@H](O)CNC(C)(C)c2cccc(OC)c2)cc(C2CCCCC2)c1 :: 0.2
CCCN(CCC)C(=O)c1cc(C(=O)N[C@@H](Cc2ccccc2)[C@H](O)CNCc2cccc(OC)c2)cc(N2CCCCC2)c1 :: 6.1

--- query ---
State its IC50 on Plasmepsin I (Plasmodium falciparum): CCCN(CCC)C(=O)c1cc(C(=O)N[C@@H](Cc2ccccc2)[C@@H](O)CNC(C)(C)c2cccc(OC)c2)cc(N2CCCCS2(=O)=O)c1
Sequence (P39898 whole entry): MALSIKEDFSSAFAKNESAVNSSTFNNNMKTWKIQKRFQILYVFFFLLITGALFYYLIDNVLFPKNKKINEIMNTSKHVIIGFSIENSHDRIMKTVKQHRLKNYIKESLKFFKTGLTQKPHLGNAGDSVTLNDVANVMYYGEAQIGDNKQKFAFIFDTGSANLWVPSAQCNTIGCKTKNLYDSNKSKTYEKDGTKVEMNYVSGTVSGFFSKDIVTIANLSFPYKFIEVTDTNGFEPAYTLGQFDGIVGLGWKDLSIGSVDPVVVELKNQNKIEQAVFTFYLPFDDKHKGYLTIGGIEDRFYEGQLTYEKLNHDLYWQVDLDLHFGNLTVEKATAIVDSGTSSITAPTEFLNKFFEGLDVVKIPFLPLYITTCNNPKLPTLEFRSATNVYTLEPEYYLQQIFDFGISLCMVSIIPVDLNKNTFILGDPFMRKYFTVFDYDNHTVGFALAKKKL
18
